# test: Solubility determined by equilibrating an excess of solid material in 500 microL of pH 7.4 phosphate buffer
# Assay type: physicochemical
# experimental_conditions: read-out: S
quantity_measured: solubility thermodynamic
In your response, put the unit directly after the numeric value.

q: Complete the entry with solubility thermodynamic for `Cc1cc(-c2ccccc2)nn1CCOc1ccc(C[C@H](Nc2ccccc2C(=O)c2ccccc2)C(=O)O)cc1`
a: 4 µg/mL

###

# experimental_target: Peroxisome proliferator-activated receptor gamma (Homo sapiens)
# Sequence (P37231 whole entry): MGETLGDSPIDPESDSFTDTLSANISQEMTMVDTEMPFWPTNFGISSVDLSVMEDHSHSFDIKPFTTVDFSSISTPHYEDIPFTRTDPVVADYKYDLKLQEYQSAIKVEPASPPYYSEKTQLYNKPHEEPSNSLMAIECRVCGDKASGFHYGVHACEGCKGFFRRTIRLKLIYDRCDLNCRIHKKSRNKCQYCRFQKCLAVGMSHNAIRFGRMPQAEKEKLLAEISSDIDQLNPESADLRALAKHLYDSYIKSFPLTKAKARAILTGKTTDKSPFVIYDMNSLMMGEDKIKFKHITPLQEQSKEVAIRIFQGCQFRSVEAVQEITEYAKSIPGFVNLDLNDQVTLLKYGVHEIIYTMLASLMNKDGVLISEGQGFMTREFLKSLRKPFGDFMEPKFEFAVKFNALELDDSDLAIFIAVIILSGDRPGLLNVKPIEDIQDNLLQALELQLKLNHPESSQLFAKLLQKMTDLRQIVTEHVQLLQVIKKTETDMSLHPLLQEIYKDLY
# test: Compound was tested functionally in vitro for inducing 50% of the maximum alkaline phosphate activity (Transactivation) against Peroxisome proliferator activated receptor gamma
# Format: functional
quantity_measured: pEC50
A value of pEC50 is the negative decimal logarithm of a concentration given in moles per litre.

q: Complete the entry with pEC50 for `O=C(c1ccccc1)c1ccccc1N[C@@H](Cc1ccc(OCCOc2ccc(SCl)cc2)cc1)C(=O)O`
a: 6.72

###

Reported pKi values are given for each entry in this list.
# experimental_target: Peroxisome proliferator-activated receptor gamma (Homo sapiens, UniProt P37231)
# test: Inhibition by 50% of in vitro binding to Peroxisome proliferator activated receptor gamma
A value of pKi is the negative decimal logarithm of a concentration given in moles per litre.

Consider the reported pKi for these molecules:
>>> print(df.to_string())
                                   molecule  reported_value
0  COc1ccccc1C(=O)N1CCC[C@H]1COc1ccc(C[C@H](Nc2ccccc2C(=O)c2ccccc2)C(=O)O)cc1            6.02
1  COC(COc1ccc(C[C@H](Nc2ccccc2C(=O)c2ccccc2)C(=O)O)cc1)c1ccccc1 (some centres undefined)            6.10

q: Complete the entry with pKi for `Cc1sc(N2CCN(S(C)(=O)=O)CC2)nc1CCOc1ccc(C[C@H](Nc2ccccc2C(=O)c2ccccc2)C(=O)O)cc1`
a: 8.58

q: Complete the entry with pKi for O=C(c1ccccc1)c1ccccc1N[C@@H](Cc1ccc(OC2CCN2C(c2ccccc2)c2ccccc2)cc1)C(=O)O (some centres undefined)
a: 5.79

###

Reported Ki values are given for each entry in this list.
# experimental_target: Peroxisome proliferator-activated receptor alpha (Homo sapiens)
# test: Tested in vitro for inhibiting the 50% binding of Peroxisome proliferator activated receptor alpha
Field format: number, assumed µM, no unit text.

Consider the reported Ki for these molecules:
                           structure_string                       experimental_target  quantity_measured  reported_value
0  Cc1sc(N2CCOCC2)nc1CCOc1ccc(C[C@H](Nc2ccccc2C(=O)c2ccccc2)C(=O)O)cc1  Peroxisome proliferator-activated receptor alpha (Homo sapiens)                 Ki            1.91
1  COCCNc1nc(CCOc2ccc(C[C@H](Nc3ccccc3C(=O)c3ccccc3)C(=O)O)cc2)c(C)s1  Peroxisome proliferator-activated receptor alpha (Homo sapiens)                 Ki            1.86

Next item in the queue.
q: Complete the entry with Ki for `Cc1cc(CCOc2ccc(C[C@H](Nc3ccccc3C(=O)c3ccccc3)C(=O)O)cc2)nn1-c1ccccc1`
a: 0.407

###

Reported EC50 values are given for each entry in this list.
# experimental_target: Peroxisome proliferator-activated receptor alpha (Homo sapiens, UniProt Q07869)
# Sequence (Q07869 whole entry): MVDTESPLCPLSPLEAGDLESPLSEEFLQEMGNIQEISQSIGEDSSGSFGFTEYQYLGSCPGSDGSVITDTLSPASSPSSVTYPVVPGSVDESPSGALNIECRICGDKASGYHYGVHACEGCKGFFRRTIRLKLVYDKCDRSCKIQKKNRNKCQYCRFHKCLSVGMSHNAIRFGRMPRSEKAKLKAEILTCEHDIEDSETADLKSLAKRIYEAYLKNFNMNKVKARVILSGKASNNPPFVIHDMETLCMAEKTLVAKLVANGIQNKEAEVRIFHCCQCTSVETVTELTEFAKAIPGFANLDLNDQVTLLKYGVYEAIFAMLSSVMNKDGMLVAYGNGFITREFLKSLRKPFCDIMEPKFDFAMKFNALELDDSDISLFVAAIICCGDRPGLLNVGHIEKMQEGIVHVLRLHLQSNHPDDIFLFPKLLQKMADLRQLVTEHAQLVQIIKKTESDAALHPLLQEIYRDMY
# test: In vitro transactivation of Peroxisome proliferator activated receptor alpha.

>>> print(df.to_string())
                           structure_string                       experimental_target  quantity_measured  reported_value
0  Cn1cc(-c2ccccc2)nc1CCOc1ccc(C[C@H](Nc2ccccc2C(=O)c2ccccc2)C(=O)O)cc1  Peroxisome proliferator-activated receptor alpha (Homo sapiens, UniProt Q07869)               EC50         > 10 µM
1  Cc1oc(N2CCCCC2)nc1CCOc1ccc(C[C@H](Nc2ccccc2C(=O)c2ccccc2)C(=O)O)cc1  Peroxisome proliferator-activated receptor alpha (Homo sapiens, UniProt Q07869)               EC50         > 10 µM
2  Cc1sc(N2CCN(C(=O)OC(C)(C)C)CC2)nc1CCOc1ccc(C[C@H](Nc2ccccc2C(=O)c2ccccc2)C(=O)O)cc1  Peroxisome proliferator-activated receptor alpha (Homo sapiens, UniProt Q07869)               EC50         > 10 µM

Next item in the queue.
q: Complete the entry with EC50 for `COc1ccc(-c2nc(CCOc3ccc(C[C@H](Nc4ccccc4C(=O)c4ccccc4)C(=O)O)cc3)c(C)o2)cc1`
a: 0.389 µM

###

# test: The solubility determined by equilibrating an excess of solid material in 500 microL of pH 7.4 phosphate buffer
# Format: ADME
# experimental_conditions: read-out: S
Assign class by solubility thermodynamic: not lower than 20 µg/mL means yes (1); lower than 20 µg/mL means no (0).

                                   compound    label
0  Cc1sc(N2CCN(C)CC2)nc1CCOc1ccc(C[C@H](Nc2ccccc2C(=O)c2ccccc2)C(=O)O)cc1   no (0)
1  Cc1oc(-c2ccncc2)nc1CCOc1ccc(C[C@H](Nc2ccccc2C(=O)c2ccccc2)C(=O)O)cc1  yes (1)

q: Threshold query (solubility thermodynamic >= 20 µg/mL) on `Cc1sc(N2CCNCC2)nc1CCOc1ccc(C[C@H](Nc2ccccc2C(=O)c2ccccc2)C(=O)O)cc1`
a: yes (1)

q: Threshold query (solubility thermodynamic >= 20 µg/mL) on Cc1oc(-c2ccccc2)nc1CCOc1ccc(C[C@H](Nc2ccccc2C(=O)c2ccccc2)C(=O)O)cc1 [FARGLITAZAR]
a: no (0)

q: Threshold query (solubility thermodynamic >= 20 µg/mL) on `Cn1cc(-c2ccccc2)nc1CCOc1ccc(C[C@H](Nc2ccccc2C(=O)c2ccccc2)C(=O)O)cc1`
a: no (0)

###

# experimental_target: Peroxisome proliferator-activated receptor gamma (Homo sapiens) (UniProt P37231)
# test: Inhibition of Peroxisome proliferator activated receptor gamma
Activity calls are given as the source filed them. The calls are words filed in the database; no cut-off is given here.
quantity_measured: Log Ki

Consider the reported Log Ki for these compounds:
                                   compound                       experimental_target  reported_value
0  Cc1ccc2cc(COc3ccc(C[C@H](Nc4ccccc4C(=O)c4ccccc4)C(=O)O)cc3)ccc2n1  Peroxisome proliferator-activated receptor gamma (Homo sapiens) (UniProt P37231)        inactive
1  COc1ccc(COc2ccc(C[C@H](Nc3ccccc3C(=O)c3ccccc3)C(=O)O)cc2)cc1OC  Peroxisome proliferator-activated receptor gamma (Homo sapiens) (UniProt P37231)        inactive
2  O=C(c1ccccc1)c1ccccc1N[C@@H](Cc1ccc(OCc2cnc3ccccc3c2)cc1)C(=O)O  Peroxisome proliferator-activated receptor gamma (Homo sapiens) (UniProt P37231)        inactive
3  O=C(c1ccccc1)c1ccccc1N[C@@H](Cc1ccc(OCC2COC(C3CCCCC3)O2)cc1)C(=O)O (some centres undefined)  Peroxisome proliferator-activated receptor gamma (Homo sapiens) (UniProt P37231)        inactive
4  COc1cc(OC)c(OC)cc1COc1ccc(C[C@H](Nc2ccccc2C(=O)c2ccccc2)C(=O)O)cc1  Peroxisome proliferator-activated receptor gamma (Homo sapiens) (UniProt P37231)        inactive
5  CN(CCOc1ccc(C[C@H](Nc2ccccc2C(=O)c2ccccc2)C(=O)O)cc1)Cc1cccs1  Peroxisome proliferator-activated receptor gamma (Homo sapiens) (UniProt P37231)        inactive

q: Complete the entry with Log Ki for `COc1ccc(COc2ccc(C[C@H](Nc3ccccc3C(=O)c3ccccc3)C(=O)O)cc2)cc1Br`
a: inactive

q: Complete the entry with Log Ki for `Cc1cc(C)c(C)c(COc2ccc(C[C@H](Nc3ccccc3C(=O)c3ccccc3)C(=O)O)cc2)c1C`
a: inactive

q: Complete the entry with Log Ki for `O=C(c1ccccc1)c1ccccc1N[C@@H](Cc1ccc(O)cc1)C(=O)O`
a: inactive
